- test.system: human CB1 (Homo sapiens)
- assay: Human CB1 cannabinoid receptor radioligand binding assay ([3H]-CP 55,940 displacement, HEK-293 membranes)
- run.parameters: CP 55,940 displacement, HEK-293 membranes; read-out: hCB1 IC50 (CP displ, nM, HEK)

>  <compound>
CCS(=O)(=O)n1c(C)c(C(=O)c2cccc(Cl)c2Cl)c2ccsc21 [Compound I-21]

>  <IC50>
> 10000 nM

$$$$
>  <compound>
CCCn1c(C)c(C(=O)c2ccccc2)c2ccsc21 [Compound I-7]

>  <IC50>
> 10000 nM

$$$$
>  <compound>
Cc1c(C(=O)c2cccc(Cl)c2Cl)c2ccsc2n1CCC1CCN(C(=O)OC(C)(C)C)CC1 [Compound I-22]

>  <IC50>
> 10000 nM

$$$$

* * *

- test.system: human CB1 (Homo sapiens, UniProt P21554)
- Sequence (P21554 whole entry): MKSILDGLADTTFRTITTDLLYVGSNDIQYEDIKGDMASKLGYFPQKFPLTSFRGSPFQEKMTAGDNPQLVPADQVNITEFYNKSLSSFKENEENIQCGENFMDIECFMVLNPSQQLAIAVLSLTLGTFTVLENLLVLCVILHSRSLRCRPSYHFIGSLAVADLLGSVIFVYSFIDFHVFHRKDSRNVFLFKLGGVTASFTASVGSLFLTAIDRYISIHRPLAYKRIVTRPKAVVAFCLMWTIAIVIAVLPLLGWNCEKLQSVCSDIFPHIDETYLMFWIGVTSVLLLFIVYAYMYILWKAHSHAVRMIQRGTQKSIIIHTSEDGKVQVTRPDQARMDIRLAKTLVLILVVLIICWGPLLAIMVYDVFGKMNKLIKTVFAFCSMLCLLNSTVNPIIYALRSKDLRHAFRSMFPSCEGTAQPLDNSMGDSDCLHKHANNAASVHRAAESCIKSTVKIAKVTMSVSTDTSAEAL
- assay: Human CB1 cannabinoid receptor radioligand binding assay ([3H]-CP 55,940 displacement, HEK-293 membranes)
assay.metric: IC50

>  <smiles.notation>
Cc1c(C(=O)c2cccc(Cl)c2Cl)c2ccsc2n1CCN1CCOCC1

>  <recorded.measurement>
1 to 10 µM

$$$$

* * *

- test.system: human CB2 (Homo sapiens)
- assay: Human CB2 cannabinoid receptor radioligand binding assay ([3H]-CP 55,940 displacement, HEK-293 membranes)
- run.parameters: read-out: hCB2 IC50 (CP displ, nM, HEK); CP 55,940 displacement, HEK-293 membranes
// reported IC50 per item

>  <smiles.notation>
Cc1c(C(=O)c2cccc(Cl)c2)c2ccsc2n1CCN1CCOCC1

>  <test.system>
human CB2 (Homo sapiens)

>  <IC50>
1000 to 10000 nM

$$$$
>  <smiles.notation>
CCCOc1ccccc1C(=O)c1c(C)n(CCN2CCOCC2)c2sccc12

>  <test.system>
human CB2 (Homo sapiens)

>  <IC50>
1000 to 10000 nM

$$$$
>  <smiles.notation>
Cc1c(C(=O)c2cccc3c2OCC3)c2ccsc2n1CCN1CCOCC1

>  <test.system>
human CB2 (Homo sapiens)

>  <IC50>
100 to 1000 nM

$$$$
>  <smiles.notation>
CCCn1c(C)c(C(=O)c2cccc(Cl)c2Cl)c2ccsc21

>  <test.system>
human CB2 (Homo sapiens)

>  <IC50>
100 to 1000 nM

$$$$

* * *

- test.system: human CB1 (Homo sapiens)
- assay: Human CB1 cannabinoid receptor radioligand binding assay ([3H]-CP 55,940 displacement, HEK-293 membranes)
- run.parameters: read-out: hCB1 IC50 (CP displ, nM, HEK); CP 55,940 displacement, HEK-293 membranes
// reported IC50 per item

>  <compound>
Cc1c(C(=O)c2cccc(Cl)c2Cl)c2cc(Cl)sc2n1CCN1CCOCC1 [Compound I-19]

>  <IC50>
1000 to 10000 nM

$$$$
>  <compound>
Cc1c(C(=O)c2cccc(Cl)c2Cl)c2ccsc2n1CCC1CCOCC1 [Compound I-9]

>  <IC50>
100 to 1000 nM

$$$$
>  <compound>
COCCn1c(C)c(C(=O)c2cccc(Cl)c2Cl)c2ccsc21 [Compound I-10]

>  <IC50>
> 10000 nM

$$$$
>  <compound>
Cc1c(C(=O)C2CCCCC2)c2ccsc2n1CCN1CCOCC1 [Compound I-24]

>  <IC50>
1000 to 10000 nM

$$$$
>  <compound>
Cc1c(C(=O)c2cccc3c2OCC3)c2ccsc2n1CCN1CCOCC1 [Compound I-14]

>  <IC50>
1000 to 10000 nM

$$$$
>  <compound>
Cc1c(C(=O)c2cccc(F)c2F)c2ccsc2n1CCN1CCOCC1 [Compound I-11]

>  <IC50>
> 10000 nM

$$$$
>  <compound>
Cc1c(C(=O)c2cccc(Cl)c2Cl)c2ccsc2n1CC(=O)N1CCOCC1 [Compound I-18]

>  <IC50>
> 10000 nM

$$$$
>  <compound>
Cc1c(C(=O)c2cccc(Cl)c2Cl)c2scnc2n1CCN1CCOCC1 [Compound I-3]

>  <IC50>
1000 to 10000 nM

$$$$
>  <compound>
Cc1c(C(=O)C2C(C)(C)C2(C)C)c2ccsc2n1CCN1CCOCC1 [Compound I-8]

>  <IC50>
1000 to 10000 nM

$$$$
>  <compound>
CCn1c(C)c(C(=O)c2cccc(Cl)c2Cl)c2ccsc21 [Compound I-30]

>  <IC50>
> 10000 nM

$$$$
>  <compound>
CCCn1c(C)c(C(=O)c2cccc(Cl)c2Cl)c2ccsc21 [Compound I-2]

>  <IC50>
> 10000 nM

$$$$
>  <compound>
Cc1c(C(=O)c2cccc(Cl)c2Cl)c2ccsc2n1CCN1CCCCC1 [Compound I-17]

>  <IC50>
1000 to 10000 nM

$$$$
>  <compound>
CCCn1c(C)c(C(=O)c2cccc(Cl)c2Cl)c2scnc21 [Compound I-4]

>  <IC50>
> 10000 nM

$$$$
>  <compound>
Cc1c(C(=O)c2ccccc2)c2ccsc2n1CCN1CCOCC1 [Compound I-31]

>  <IC50>
> 10000 nM

$$$$
>  <compound>
Cc1c(C(=O)c2cccc(Cl)c2Cl)c2sccc2n1CCN1CCOCC1 [Compound I-5]

>  <IC50>
1000 to 10000 nM

$$$$
>  <compound>
Cc1c(C(=O)c2cccc(Cl)c2Cl)c2ccsc2n1CC1CCCCN1C (stereo not shown) [Compound I-20]

>  <IC50>
< 100 nM

$$$$
>  <compound>
Cc1c(C(=O)c2cccc(Cl)c2Cl)c2ccsc2n1CC1CCOCC1 [Compound I-23]

>  <IC50>
1000 to 10000 nM

$$$$
>  <compound>
Cc1c(C(=O)c2cccc(Cl)c2)c2ccsc2n1CCN1CCOCC1 [Compound I-12]

>  <IC50>
1000 to 10000 nM

$$$$
>  <compound>
Cc1c(C(=O)c2cccc(Cl)c2Cl)c2ccsc2n1CCC1CCN(C)CC1 [Compound I-25]

>  <IC50>
> 10000 nM

$$$$
>  <compound>
CCCOc1ccccc1C(=O)c1c(C)n(CCN2CCOCC2)c2sccc12 [Compound I-27]

>  <IC50>
> 10000 nM

$$$$
>  <compound>
Cc1c(C(=O)c2cccnc2Cl)c2ccsc2n1CCN1CCOCC1 [Compound I-28]

>  <IC50>
> 10000 nM

$$$$
>  <compound>
Cc1c(C(=O)c2ccc(Cl)cc2Cl)c2ccsc2n1CCN1CCOCC1 [Compound I-15]

>  <IC50>
> 10000 nM

$$$$

* * *

- test.system: human CB2 (Homo sapiens)
- assay: Human CB2 cannabinoid receptor radioligand binding assay ([3H]-CP 55,940 displacement, HEK-293 membranes)
pIC50: −log10 of the molar value.
assay.metric: pIC50

>  <smiles.notation>
Cc1c(C(=O)c2cccc(Cl)c2Cl)c2ccsc2n1CCN1CCOCC1

>  <assay.metric>
pIC50

>  <recorded.measurement>
> 7.00

$$$$

* * *

// reported EC50 per item
- test.system: human CB2 (Homo sapiens)
- assay: 35S GTPγS binding functional assay, agonist mode, hCB2 HEK-293 membranes
- Type: biochemical
- run.parameters: read-out: hCB2 EC50 (GTPyS ag, nM, HEK); GTPγS agonist mode, HEK-293 membranes
assay.metric: EC50

>  <compound>
CCn1c(C)c(C(=O)c2cccc(Cl)c2Cl)c2ccsc21 [Compound I-30]

>  <test.system>
human CB2 (Homo sapiens)

>  <recorded.measurement>
100 to 1000 nM

$$$$
>  <compound>
Cc1c(C(=O)c2cccc(Cl)c2Cl)c2ccsc2n1CC(=O)N1CCOCC1 [Compound I-18]

>  <test.system>
human CB2 (Homo sapiens)

>  <recorded.measurement>
100 to 1000 nM

$$$$

* * *

- test.system: human CB2 (Homo sapiens, UniProt P34972)
- Sequence (P34972 whole entry): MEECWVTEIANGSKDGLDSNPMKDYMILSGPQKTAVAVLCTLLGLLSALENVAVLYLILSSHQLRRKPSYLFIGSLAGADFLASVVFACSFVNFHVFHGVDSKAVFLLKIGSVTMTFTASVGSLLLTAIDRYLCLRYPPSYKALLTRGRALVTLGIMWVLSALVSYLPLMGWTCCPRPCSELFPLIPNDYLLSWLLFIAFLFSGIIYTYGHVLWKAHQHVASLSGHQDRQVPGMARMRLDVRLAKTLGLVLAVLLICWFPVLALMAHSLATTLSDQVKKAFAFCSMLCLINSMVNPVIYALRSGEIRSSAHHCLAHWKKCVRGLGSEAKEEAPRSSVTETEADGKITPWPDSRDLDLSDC
- assay: Human CB2 cannabinoid receptor radioligand binding assay ([3H]-CP 55,940 displacement, HEK-293 membranes)
- run.parameters: read-out: hCB2 IC50 (CP displ, nM, HEK); CP 55,940 displacement, HEK-293 membranes

>  <compound>
Cc1c(C(=O)c2cccc(Cl)c2Cl)c2cc(Cl)sc2n1CCN1CCOCC1

>  <IC50>
< 100 nM

$$$$
>  <compound>
Cc1c(C(=O)c2cccc(Cl)c2Cl)c2scnc2n1CCN1CCOCC1

>  <IC50>
< 100 nM

$$$$
>  <compound>
CCCn1c(C)c(C(=O)c2cccc(Cl)c2Cl)c2scnc21

>  <IC50>
100 to 1000 nM

$$$$
>  <compound>
Cc1c(C(=O)c2cccnc2Cl)c2ccsc2n1CCN1CCOCC1

>  <IC50>
1000 to 10000 nM

$$$$
>  <compound>
COCCn1c(C)c(C(=O)c2cccc(Cl)c2Cl)c2ccsc21

>  <IC50>
100 to 1000 nM

$$$$
>  <compound>
CCn1c(C)c(C(=O)c2cccc(Cl)c2Cl)c2ccsc21

>  <IC50>
1000 to 10000 nM

$$$$
>  <compound>
Cc1c(C(=O)c2ccccc2)c2ccsc2n1CCN1CCOCC1

>  <IC50>
> 10000 nM

$$$$
>  <compound>
Cc1c(C(=O)c2ccc(Cl)cc2Cl)c2ccsc2n1CCN1CCOCC1

>  <IC50>
100 to 1000 nM

$$$$
>  <compound>
Cc1c(C(=O)c2cccc(Cl)c2Cl)c2ccsc2n1CC(=O)N1CCOCC1

>  <IC50>
100 to 1000 nM

$$$$
>  <compound>
Cc1c(C(=O)c2cccc(Cl)c2Cl)c2ccsc2n1CCC1CCOCC1

>  <IC50>
< 100 nM

$$$$
>  <compound>
Cc1c(C(=O)c2cccc(Cl)c2Cl)c2ccsc2n1CCC1CCN(C)CC1

>  <IC50>
> 10000 nM

$$$$
>  <compound>
Cc1c(C(=O)C2C(C)(C)C2(C)C)c2ccsc2n1CCN1CCOCC1

>  <IC50>
100 to 1000 nM

$$$$
>  <compound>
Cc1c(C(=O)c2cccc(Cl)c2Cl)c2sccc2n1CCN1CCOCC1

>  <IC50>
< 100 nM

$$$$
>  <compound>
Cc1c(C(=O)c2cccc(F)c2F)c2ccsc2n1CCN1CCOCC1

>  <IC50>
1000 to 10000 nM

$$$$
>  <compound>
Cc1c(C(=O)c2cccc(Cl)c2Cl)c2ccsc2n1CC1CCOCC1

>  <IC50>
< 100 nM

$$$$
>  <compound>
Cc1c(C(=O)C2CCCCC2)c2ccsc2n1CCN1CCOCC1

>  <IC50>
100 to 1000 nM

$$$$
>  <compound>
Cc1c(C(=O)c2cccc(Cl)c2Cl)c2ccsc2n1CC1CCCCN1C (stereo not drawn)

>  <IC50>
< 100 nM

$$$$
>  <compound>
Cc1c(C(=O)c2cccc(Cl)c2Cl)c2ccsc2n1CCN1CCCCC1

>  <IC50>
< 100 nM

$$$$
